biological target: UniProt P31639; assay: Cell-based assay for sodium-dependent glucose transport (14C-AMG uptake), CHO-K1 cells stably expressing human SGLT2; conditions: Na-dependent 14C-AMG uptake, read-out: CHOK-SGLT2 IC50
Sequence (P31639 whole entry): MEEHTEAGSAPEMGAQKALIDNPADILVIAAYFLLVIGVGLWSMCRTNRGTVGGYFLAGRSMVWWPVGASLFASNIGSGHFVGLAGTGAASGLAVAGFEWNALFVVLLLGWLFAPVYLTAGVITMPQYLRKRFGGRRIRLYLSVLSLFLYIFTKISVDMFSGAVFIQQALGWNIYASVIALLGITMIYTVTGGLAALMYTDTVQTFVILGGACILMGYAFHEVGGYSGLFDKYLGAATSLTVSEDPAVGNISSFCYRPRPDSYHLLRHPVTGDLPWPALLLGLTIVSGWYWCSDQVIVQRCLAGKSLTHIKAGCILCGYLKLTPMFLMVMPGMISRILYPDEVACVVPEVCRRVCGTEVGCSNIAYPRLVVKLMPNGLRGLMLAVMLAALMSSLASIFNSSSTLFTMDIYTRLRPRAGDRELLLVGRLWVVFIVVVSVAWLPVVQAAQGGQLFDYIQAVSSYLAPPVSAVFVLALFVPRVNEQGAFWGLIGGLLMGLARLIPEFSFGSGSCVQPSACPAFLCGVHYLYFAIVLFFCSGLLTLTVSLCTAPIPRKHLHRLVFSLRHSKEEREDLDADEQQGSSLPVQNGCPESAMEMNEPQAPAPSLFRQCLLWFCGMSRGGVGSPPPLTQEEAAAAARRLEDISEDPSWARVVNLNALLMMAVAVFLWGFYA
property: pIC50
In textbook form, pIC50 equals minus log to base ten of the concentration in mol/L.

Identify measured pIC50 associated with `CCc1ccc(Cc2c[nH]c3ccc([C@@H]4O[C@H](CO)[C@@H](O)[C@H](O)[C@H]4O)cc23)cc1` 6.88

Give the value of pIC50 reported for the following: `COc1ccc(Cc2c[nH]c3ccc([C@@H]4O[C@H](CO)[C@@H](O)[C@H](O)[C@H]4O)cc23)cc1` 5.86
